Biological target: BRM (Homo sapiens)
Construct: Western Blot Screen of BRM Degradation in SW1573 Cells; endogenous in cells; host or cells: SW1573 cells
Sequence (P51531 whole entry): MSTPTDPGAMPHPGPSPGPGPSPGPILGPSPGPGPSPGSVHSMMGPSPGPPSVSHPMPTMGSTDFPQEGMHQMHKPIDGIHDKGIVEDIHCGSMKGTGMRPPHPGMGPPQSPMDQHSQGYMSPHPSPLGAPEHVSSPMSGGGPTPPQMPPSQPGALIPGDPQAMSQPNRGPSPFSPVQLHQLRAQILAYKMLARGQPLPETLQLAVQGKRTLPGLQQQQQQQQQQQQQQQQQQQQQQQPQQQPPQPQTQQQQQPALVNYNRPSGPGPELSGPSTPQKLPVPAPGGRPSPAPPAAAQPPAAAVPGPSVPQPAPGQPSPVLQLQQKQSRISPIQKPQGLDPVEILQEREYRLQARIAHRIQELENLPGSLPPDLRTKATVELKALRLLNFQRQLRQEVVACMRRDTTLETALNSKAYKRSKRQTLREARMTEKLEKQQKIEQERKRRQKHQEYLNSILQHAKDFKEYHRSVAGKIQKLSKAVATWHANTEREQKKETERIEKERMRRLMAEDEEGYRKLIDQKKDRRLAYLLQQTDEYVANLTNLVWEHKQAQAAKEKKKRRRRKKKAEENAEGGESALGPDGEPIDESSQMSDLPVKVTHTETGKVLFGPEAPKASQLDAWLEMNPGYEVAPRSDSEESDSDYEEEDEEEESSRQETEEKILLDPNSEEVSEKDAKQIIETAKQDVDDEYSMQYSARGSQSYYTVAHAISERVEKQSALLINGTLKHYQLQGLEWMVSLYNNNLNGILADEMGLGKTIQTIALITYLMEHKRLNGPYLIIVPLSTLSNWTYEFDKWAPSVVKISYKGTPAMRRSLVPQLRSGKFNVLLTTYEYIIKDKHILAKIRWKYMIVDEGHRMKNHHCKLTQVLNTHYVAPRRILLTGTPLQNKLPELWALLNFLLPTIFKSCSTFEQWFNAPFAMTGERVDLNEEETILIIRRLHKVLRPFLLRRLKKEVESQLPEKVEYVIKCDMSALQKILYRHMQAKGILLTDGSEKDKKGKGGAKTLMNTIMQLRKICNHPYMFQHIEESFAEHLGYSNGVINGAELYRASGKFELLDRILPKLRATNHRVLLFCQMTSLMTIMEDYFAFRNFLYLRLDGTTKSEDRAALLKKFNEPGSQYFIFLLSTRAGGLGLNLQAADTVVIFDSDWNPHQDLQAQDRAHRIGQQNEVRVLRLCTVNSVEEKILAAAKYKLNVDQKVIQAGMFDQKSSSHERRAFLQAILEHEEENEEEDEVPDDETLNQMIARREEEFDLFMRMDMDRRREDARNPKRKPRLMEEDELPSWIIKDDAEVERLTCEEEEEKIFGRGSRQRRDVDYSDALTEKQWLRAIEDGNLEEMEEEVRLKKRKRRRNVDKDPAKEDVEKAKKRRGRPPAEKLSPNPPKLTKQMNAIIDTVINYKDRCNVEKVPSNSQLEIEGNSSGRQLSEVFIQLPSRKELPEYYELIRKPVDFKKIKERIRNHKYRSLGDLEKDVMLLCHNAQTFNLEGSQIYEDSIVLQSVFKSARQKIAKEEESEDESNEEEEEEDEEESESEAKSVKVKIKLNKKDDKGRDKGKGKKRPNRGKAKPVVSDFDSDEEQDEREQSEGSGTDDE
Assay: BRM degradation (Dmax and DC50) in SW1573 cells, Western blot screen / In-Cell Western screen
Type: cell-based
Conditions: overnight (18-20 hours) treatment
Examples of compounds with documented DC50 follow.

COMPOUND	DC50
Cc1nccn1-c1ccc([C@H](C)NC(=O)[C@@H]2C[C@@H](O)CN2C(=O)[C@H](c2cc(N3CCC(CN4CCC(O[C@H]5C[C@H](N6CCC(C(C)n7cc(C#Cc8cc(-c9ccccc9O)nnc8N)cn7)CC6)C5)CC4)CC3)no2)C(C)C)cc1 (some centres unmarked)	≥ 30 nM
Cc1ncsc1-c1ccc([C@H](C)NC(=O)[C@@H]2C[C@@H](O)CN2C(=O)[C@@H](c2cc(N3CCC(CN4CCC(O[C@H]5C[C@H](N6CCC(Cc7cnn(-c8cc(-c9ccccc9O)nnc8N)c7)CC6)C5)CC4)CC3)no2)C(C)C)cc1	< 2.5 nM
Cc1ncsc1-c1ccc([C@H](C)NC(=O)[C@@H]2C[C@@H](O)CN2C(=O)[C@H](c2cc(N3CCC(O[C@H]4CC[C@@H](Oc5cc(N6C7CCC6CN(c6cc(-c8ccccc8O)nnc6N)C7)ccn5)CC4)CC3)no2)C(C)C)cc1	≥ 30 nM
Cc1ncsc1-c1ccc([C@H](C)NC(=O)[C@@H]2C[C@@H](O)CN2C(=O)[C@H](c2cc(O[C@H]3C[C@H](CN4CCC(O[C@H]5C[C@H](N6CCOC7(CCN(c8cc(-c9ccccc9O)nnc8N)CC7)C6)C5)CC4)C3)no2)C(C)C)cc1	10 to 30 nM
Cc1ncsc1-c1ccc([C@H](C)NC(=O)[C@@H]2C[C@@H](O)CN2C(=O)[C@H](c2cc(N3CCC(O[C@H]4CC[C@H](Oc5cc(N6C7CCC6CN(c6cc(-c8ccccc8O)nnc6N)C7)ccn5)CC4)CC3)no2)C(C)C)cc1	≥ 30 nM
Cc1ncsc1-c1ccc([C@H](C)NC(=O)[C@@H]2C[C@@H](O)CN2C(=O)[C@@H](c2cc(N3CCC(CN4CCC5(CC4)CC(N4CCC(F)(F)C(CN6C7CCC6CN(c6cc(-c8ccccc8O)nnc6N)C7)C4)C5)CC3)no2)C(C)C)cc1 (some centres unmarked)	< 2.5 nM
Cc1ncsc1-c1ccc([C@H](C)NC(=O)[C@@H]2C[C@@H](O)CN2C(=O)[C@@H](c2cc(N3CCC(CN4CC5(CC(N6CCO[C@H](CN7C8CCC7CN(c7cc(-c9ccccc9O)nnc7N)C8)C6)C5)C4)CC3)no2)C(C)C)cc1	< 2.5 nM
Cc1ncsc1-c1ccc([C@H](C)NC(=O)[C@@H]2C[C@@H](O)CN2C(=O)[C@@H](c2cc(N3CCC(CN4CCC5(CC4)CC(N4CCO[C@@H]([C@@H](C)n6cc(C#Cc7cc(-c8ccccc8O)nnc7N)cn6)C4)C5)CC3)no2)C(C)C)cc1	< 2.5 nM

###

Examples of compounds with documented DC50 follow.
Target: BRM (Homo sapiens)
Construct: Western Blot Screen of BRM Degradation in SW1573 Cells; endogenous in cells; host or cells: SW1573 cells
Assay: BRM degradation (Dmax and DC50) in SW1573 cells, Western blot screen / In-Cell Western screen
Assay type: cell-based
Details: overnight (18-20 hours) treatment

COMPOUND	DC50
CC(C)[C@@H](C(=O)N1C[C@H](O)C[C@H]1C(=O)N[C@@H](C)c1ccc(C#N)cc1)c1cc(N2CCC(CN3CC[C@H](Oc4cc(N5C6CCC5CN(c5cc(-c7ccccc7O)nnc5N)C6)ccn4)[C@H](F)C3)CC2)no1 [Compound 156]	< 2.5 nM
Cc1ncsc1-c1ccc([C@H](C)NC(=O)[C@@H]2C[C@@H](O)CN2C(=O)[C@@H](c2cc(N3CCC(CN4CCC(O[C@H]5C[C@H](N6CCC([C@H](C)c7cnn(-c8cc(-c9ccccc9O)nnc8N)c7)CC6)C5)CC4)CC3)no2)C(C)C)cc1 [Compound 75]	< 2.5 nM
Cc1ncsc1-c1ccc([C@H](C)NC(=O)[C@@H]2C[C@@H](O)CN2C(=O)[C@@H](c2cc(N3CCC(CN4CCC5(CC4)CC(CN4CCC(Oc6cc(N7C8CCC7CN(c7cc(-c9ccccc9O)nnc7N)C8)ccn6)CC4)C5)CC3)no2)C(C)C)cc1 [Compound 32]	< 2.5 nM
CC(C)[C@@H](C(=O)N1C[C@H](O)C[C@H]1C(=O)N[C@@H](C)c1ccc(-c2ccnn2C)cc1)c1cc(N2CCC(CN3CCC4(CC3)CC(N3CCO[C@@H](CN5C6CCC5CN(c5cc(-c7ccccc7O)nnc5N)C6)C3)C4)CC2)no1 [Compound 106]	< 2.5 nM
CC(NC(=O)[C@@H]1C[C@@H](O)CN1C(=O)[C@@H](c1cc(N2CCC(CN3CCC(O[C@H]4C[C@H](Oc5cc(N6C7CCC6CN(c6cc(-c8ccccc8O)nnc6N)C7)ccn5)C4)CC3)CC2)no1)C(C)C)c1ccc(C#N)c(F)c1 (some centres unmarked) [Compound 4]	< 2.5 nM
CC(C)[C@@H](C(=O)N1C[C@H](O)C[C@H]1C(=O)N[C@@H](C)c1ccc(Cl)cc1)c1cc(N2CCC(CN3CCC(O[C@H]4C[C@H](Oc5cc(N6C7CCC6CN(c6cc(-c8ccccc8O)nnc6N)C7)ccn5)C4)CC3)CC2)no1 (relative stereo) [Compound 48]	10 to 30 nM
Cc1ncsc1-c1ccc([C@H](C)NC(=O)[C@@H]2C[C@@H](O)CN2C(=O)[C@@H](c2cc(N3CCC(CN4CCC(O[C@H]5C[C@H](N6CCC(C(C)c7cn(-c8cc(-c9ccccc9O)nnc8N)cn7)CC6)C5)CC4)CC3)no2)C(C)C)cc1 (some centres unmarked) [Compound 85]	≥ 30 nM
Cc1ncsc1-c1ccc([C@H](C)NC(=O)C2C[C@@H](O)CN2C(=O)[C@@H](c2cc(N3CCC(CN4CC[C@H](Oc5cc(N6C7CCC6CN(c6cc(-c8ccccc8O)nnc6N)C7)ccn5)[C@H](F)C4)CC3)no2)C(C)C)cc1 (stereo in doubt) [Compound 50]	< 2.5 nM
